assay: Metabolic stability in rat liver microsomes assessed as metabolic rate at 1 uM preincubated for 5 mins followed by NADPH addition and measured up to 30 mins by LC/MS-MS analysis; type: ADME, Microsome; conditions: 0.5 h
EXPERIMENTAL ENDPOINT: Drug metabolism (nmol/min/mg)

Recorded Drug metabolism, per entry:
{"SUBSTANCE SMILES": "Cn1nccc1-c1cc(C(F)(F)F)ccc1[C@H]1CCOc2cc(S(=O)(=O)Nc3ncccn3)ccc21", "Drug metabolism (nmol/min/mg)": 0.01}
{"SUBSTANCE SMILES": "O=S(=O)(Nc1ncccn1)c1ccc2c(c1)OCC[C@@H]2c1ccc(C(F)(F)F)cc1N1CCOCC1", "Drug metabolism (nmol/min/mg)": 0.02}
{"SUBSTANCE SMILES": "O=S(=O)(Nc1ncccn1)c1ccc2c(c1)OCC[C@@H]2c1ccc(C(F)(F)F)cc1-c1ccc(F)nc1", "Drug metabolism (nmol/min/mg)": 0}
{"SUBSTANCE SMILES": "Cn1nccc1-c1cc(C(F)(F)F)ccc1[C@H]1CCc2cc(S(=O)(=O)Nc3ncccn3)ccc21", "Drug metabolism (nmol/min/mg)": 0.04}
{"SUBSTANCE SMILES": "O=S(=O)(Nc1nccs1)c1ccc2c(c1)OCC[C@@H]2c1ccc(C(F)(F)F)cc1-n1ccnn1", "Drug metabolism (nmol/min/mg)": 0.02}
{"SUBSTANCE SMILES": "O=S(=O)(Nc1nccs1)c1ccc2c(c1)OCC[C@@H]2c1ccc(C(F)(F)F)cc1-c1ccc(F)nc1", "Drug metabolism (nmol/min/mg)": 0.05}

I: Cc1ccc(-c2cc(C(F)(F)F)ccc2[C@H]2CCOc3cc(S(=O)(=O)Nc4ncccn4)ccc32)cn1
II: Cn1nccc1-c1cc(C(F)(F)F)ccc1[C@H]1CCOc2cc(S(=O)(=O)Nc3nccs3)ccc21
Response body: label of entry with the larger Drug metabolism; valid values I , II . Kindly state the label of the option you pick.
II
(II: 0.04 nmol/min/mg, I: 0.02 nmol/min/mg)

Just for reference, ChEMBL document CHEMBL4627393 is where these values come from.
